test system: TFEB; experiment: TFEB nuclear translocation assay, HeLa wt cells; format: cell-based; conditions: Homo sapiens, HeLa, 2 h, 2 hrs compound treatment, Table 1 does not say HeLa wt or TRPML1 KO
reported metric: AC50

[[record]]
molecule = "C[C@@H](c1cccc(F)c1N1CCC(F)(F)CC1)S(=O)(=O)c1ccc(S(=N)(=O)N(C)C)cc1 (single isomer, unassigned)"
study_target = "TFEB"
reported_metric = "AC50"
recorded_result = "≤ 2 µM"

[[record]]
molecule = "COc1ccc(S(=O)(=O)Nc2ccccc2N2CCC(N(C)c3ccc(F)cc3F)CC2)cc1"
study_target = "TFEB"
reported_metric = "AC50"
recorded_result = "≤ 2 µM"

[[record]]
molecule = "CN(C)S(=O)(=O)c1ccc(S(=O)(=O)Nc2ccccc2N2CCC(c3ccc(Cl)cc3)CC2)cc1"
study_target = "TFEB"
reported_metric = "AC50"
recorded_result = "≤ 2 µM"

[[record]]
molecule = "CN(CCO)S(=O)(=O)c1ccc(S(=O)(=O)Nc2ccccc2N2CCC(c3c(F)cccc3F)CC2)cc1"
study_target = "TFEB"
reported_metric = "AC50"
recorded_result = "2.01 to 8 µM"

[[record]]
molecule = "CC(C)CN1CCN(c2ccccc2NS(=O)(=O)c2ccc(S(=O)(=O)N(C)C)cc2)CCC1=O"
study_target = "TFEB"
reported_metric = "AC50"
recorded_result = "2.01 to 8 µM"

[[record]]
molecule = "CN(C)S(=O)(=O)c1ccc(S(=O)(=O)Nc2ccnnc2N2CCC(c3ccc(Cl)cc3F)CC2)cc1"
study_target = "TFEB"
reported_metric = "AC50"
recorded_result = "≥ 10 µM"

[[record]]
molecule = "COCC1(C)CCN(c2ccccc2NS(=O)(=O)c2ccc(Br)cc2)CC1"
study_target = "TFEB"
reported_metric = "AC50"
recorded_result = "2.01 to 8 µM"

